Tested on: EKVX NSCLC
Assay: NCI-60 one-dose screen, 48 h (100 = growth as untreated, 0 = no growth, -100 = all killed)
Details: 10 µM
This is part of a sample that, as a whole, favours compounds with a hit. Of some 83,000 tested, about 20% had one in any assay.
// NB: equality with 40% counts as rule not met; only growth strictly below is rule met

Take a look at these entries with their results.
COc1cc2c3c(n(CCCn4ccnc4)c(=O)c2cc1OC)-c1nc2c(cc1C3=O)OCO2
rule not met
CCCn1c(=O)c2[nH]c(-c3ccc(OCc4nc5ccc(F)cc5[nH]4)cc3)nc2n(CCC)c1=O
rule met
CO[C@@H]1CSS[C@H]1Cn1nc(-c2ccc(Oc3ccccc3)cc2)c2c(N)ncnc21
rule not met

Please indicate whether the reported growth of COc1ccccc1NCc1ccc(CO)n1-c1ccc(C)cc1 is strictly below 40%. rule not met

Bench note: check whether Cn1cc(/C=N/Nc2cccc(Cl)n2)c2ccccc21 shows growth below 40% rule not met

Is 40% strictly greater than the molecule's reported growth? molecule: COc1ccc(CN2[C@@H](C(=O)NCc3ccc(C(=O)NO)cc3)Cc3c([nH]c4ccccc34)[C@@H]2C)cc1 rule met

Criterion: growth strictly below 40%. Is it met by COc1ccc(-c2nc(S(=O)(=O)c3ccc(C)cc3)c(S(=O)(=O)CC(=O)N(C)Cc3ccccc3)o2)cc1 ? rule not met

I wonder whether N#Cc1ccc(-c2nn(-c3ccc(C(=O)O)cc3)cc2CNc2ccc(Oc3ccccc3)cc2)cc1 has growth below 40%. Can you tell? rule not met

Does this molecule meet the criterion growth < 40%? Cc1noc2c(Cc3ccc([N+](=O)[O-])cc3)nn(CC(=O)N/N=C/c3ccc(Br)cc3)c(=O)c12 rule not met

Dear colleague, could you confirm whether growth of COc1ccc2[nH]c(=O)c(CSc3ccc(Nc4nccc(-c5ccc(Cl)cc5)n4)cc3)cc2c1 falls below 40%? Thanks. rule not met

I'd appreciate it if you could check whether O=C(Nc1nc2ccc([N+](=O)[O-])cc2s1)Nc1cc(Cl)ccc1I has growth smaller than 40%. rule met

In plain terms, does CCOC(=O)c1c(CSc2ccccc2)n(C)c2cc(CN(C)C)c(O)c(CN(C)C)c12 come in under 40% for growth? rule met

Item CN1CCc2c(sc3ncnc(N/N=C/c4cn(-c5ccccc5)nc4-c4ccc(Cl)cc4)c23)C1 : growth beneath 40%, strictly? rule met

growth strictly < 40% for this molecule? CCCCCc1ccc(S(=O)(=O)N(C(C)=O)c2cc(-c3csc(N(C)C(C)=O)n3)ccc2N2CCN(C)CC2)cc1 rule not met
